Values compiled from ChEMBL document CHEMBL5050844.

assay: Induction of anti-CD3 antibodies-stimulated human T cell activation at 1 uM assessed fold increase in IL-2 secretion measured by ELISA assay; assay type: functional, T cell line; further: reference of the scale not given here
Measured attribute: fold change (FC)

* Cn1cnnc1CC1(c2cccc(NC(=O)c3cc(CN4C[C@@H]5[C@H](C4)C5(F)F)cc(C4CC4)n3)c2)COC1 | >=0.201
* C[C@H](Cc1nncn1C)c1cc(N2Cc3c(cccc3C(F)(F)F)C2=O)nc(C2(C)CC2)c1 | 0.051
* C[C@H](Cc1nncn1C1CC1)c1cccc(N2Cc3c(cccc3C(F)(F)F)C2=O)c1 | <=0.05
* C[C@H](c1cc2c(c(C(F)(F)F)c1)CN(c1cccc(C3([C@@H](F)c4nncn4C)COC3)c1)C2=O)N1CCC2(CC2)C1 | >=0.201
* Cn1cnnc1CC1(c2cccc(N3Cc4c(cc(CN5CCc6ccccc6C5)cc4C(F)(F)F)C3=O)c2)COC1 | >=0.201

Quick check: fold change (FC) of C[C@H](Cc1nncn1C)c1cccc(N2Cc3c(cc(C(=O)N4C[C@@H](O)C[C@H]4C)cc3C(F)(F)F)C2=O)c1.O=C(O)C(F)(F)F ?
>=0.201

Quick check: fold change (FC) of Cn1cnnc1[C@H](F)[C@@](C)(F)c1cccc(N2Cc3c(cc(C4CC4)cc3C(F)(F)F)C2=O)c1 (single isomer, unassigned; 482) ?
0.051

Quick check: fold change (FC) of C[C@H](Cc1nncn1C)c1cc(N[C@@H](C)CO)nc(N2Cc3c(cccc3C(F)(F)F)C2=O)c1 ?
0.051

Quick check: fold change (FC) of C[C@H](Sc1nncn1C)c1cccc(N2Cc3c(ccnc3Cl)C2=O)c1 ?
<=0.05

Quick check: fold change (FC) of Cn1cnnc1CC1(c2cccc(N3Cc4c(cc(C(F)(F)CO)cc4C(F)(F)F)C3=O)c2)COC1 ?
0.101

Quick check: fold change (FC) of CC(c1cc2c(c(C(F)(F)F)c1)CN(c1cccc([C@H](C)Cc3nncn3C)c1)C2=O)N1CC[C@H](O)C1 (stereo partly drawn) ?
0.151

Quick check: fold change (FC) of Cc1cc(C(=O)Nc2cccc(-c3c(-c4nncn4C)cnn3C)c2)nc(C2CC2)n1 ?
0.101

Quick check: fold change (FC) of Cn1cnnc1CC1(c2cccc(N3Cc4c(cc(C(F)(F)C(=O)O)cc4C(F)(F)F)C3=O)c2)COC1 ?
<=0.05

Quick check: fold change (FC) of C[C@@H](c1cccc(N2Cc3c(cccc3C(F)(F)F)C2=O)c1)[C@@H](F)c1nncn1C (single isomer, unassigned) ?
0.051

Quick check: fold change (FC) of CCOc1cc(N2Cc3c(cc([C@H](C)N4CC[C@H](F)C4)cc3C(F)(F)F)C2=O)cc(C2(Cc3nncn3C)COC2)c1 ?
0.151

Quick check: fold change (FC) of CN1C[C@H]2CC[C@@H](C1)N2c1cc(C(=O)Nc2cccc(C3(Cc4nncn4C)COC3)c2)nc(C2CC2)n1 ?
>=0.201

Quick check: fold change (FC) of Cn1cnnc1CC1(c2cccc(N3Cc4c(cc(CN5CC[C@@H]6C[C@@H]65)cc4C(F)(F)F)C3=O)c2)COC1 ?
>=0.201

Quick check: fold change (FC) of Cn1cnnc1CC1(c2cccc(N3Cc4c(cc(CN5C6CCC5CC6)cc4C(F)(F)F)C3=O)c2)COC1 ?
>=0.201

Quick check: fold change (FC) of C[C@H](Sc1nnc[nH]1)c1cccc(NC(=O)c2cc3ccccc3cn2)c1 ?
0.051

Quick check: fold change (FC) of Cn1cnnc1CC1(c2cccc(N3Cc4c(cc(CN5CCS(=O)(=O)CC5)cc4C(F)(F)F)C3=O)c2)COC1 ?
0.101

Quick check: fold change (FC) of Cn1cnnc1CC1(c2cccc(NC(=O)c3nc4c(C(F)(F)F)cccc4[nH]3)c2)COC1 ?
0.101

Quick check: fold change (FC) of Cn1cnnc1CC1(c2cccc(N3Cc4c(cc(CN5CC6C(C5)C6(F)F)cc4C(F)(F)F)C3=O)c2)COC1 (stereo not drawn) ?
>=0.201
